target.or.test.system: human GLP-1R (Homo sapiens, UniProt P43220, G168S)
Sequence (P43220 24-463 G168S limits assumed): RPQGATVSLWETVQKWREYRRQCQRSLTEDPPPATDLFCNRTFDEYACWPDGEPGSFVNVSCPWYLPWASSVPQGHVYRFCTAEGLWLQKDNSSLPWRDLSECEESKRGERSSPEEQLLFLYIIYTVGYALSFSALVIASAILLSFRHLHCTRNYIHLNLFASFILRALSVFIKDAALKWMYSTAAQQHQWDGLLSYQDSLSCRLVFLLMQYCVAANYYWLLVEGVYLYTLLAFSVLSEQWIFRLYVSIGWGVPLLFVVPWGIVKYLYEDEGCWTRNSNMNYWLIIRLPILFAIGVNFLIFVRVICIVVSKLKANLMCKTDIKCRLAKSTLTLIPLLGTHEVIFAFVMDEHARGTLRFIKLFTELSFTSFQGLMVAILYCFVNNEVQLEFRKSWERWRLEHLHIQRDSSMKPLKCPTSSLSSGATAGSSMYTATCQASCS
procedure.text: CHO GLP-1R Clone H6—Assay 1: HTRF cAMP cell-based functional agonist assay (high GLP-1R density)
cond: read-out: Assay 1 Emax (%), CHO GLP-1R Clone H6; relative to saturating concentration of full agonist GLP-1 (1 μM); arithmetic mean
measured.endpoint: Emax (%)

Guide cases for Emax, answers given:
compound	value.unit	Emax
CN1CCC[C@@H]1Cn1c(CN2CCC(c3cccc(OCc4ccc(Cl)cc4F)n3)CC2)nc2ccc(C(=O)O)cc21 [Example 11A-34]	%	70
CCn1cncc1Cn1c(CN2CCN(c3cccc(OCc4ccc(C#N)cc4F)n3)CC2)nc2ccc(C(=O)O)cc21 [Example 10A-35]	%	93

a = O=C(O)c1ccc2nc(CN3CCC(c4cccc(OCc5ccc(F)cc5F)n4)CC3)n(Cc3cnco3)c2c1 [Example 10A-44]
b = O=C(O)c1ccc2nc(CN3CCC(c4cccc(OCc5ccc(Cl)cc5F)n4)CC3)n(CCC3CCOCC3)c2c1 [Example 11A-65]
I need your help: which of the pair a , b has higher Emax? Kindly give the label for the entry you pick.
a
(a: 73%, b: 51%)

---

target.or.test.system: human GLP-1R (Homo sapiens, UniProt P43220, G168S)
procedure.text: CHO GLP-1R Clone H6—Assay 1: HTRF cAMP cell-based functional agonist assay (high GLP-1R density)
cond: read-out: Assay 1 EC50; CHO GLP-1R Clone H6, cAMP HTRF; geometric mean
pEC50: −log10 of the molar value. Structures can show the parent of a compound that is named as a salt.
measured.endpoint: pEC50

Guide cases for pEC50, answers given:
molecule	pEC50
CN1CCOC(Cn2c(CN3CCC(c4cccc(OCc5ccc(Cl)cc5F)n4)CC3)nc3ccc(C(=O)O)cc32)C1 (centres unmarked) [Example 11A-63]	5.60
Cn1c(CN2CCC(c3cccc(OCc4ccc(Cl)cc4F)n3)CC2)nc2ccc(C(=O)O)nc21 [Example 2A-01, hydrochloride]	7.05
CCOC(C)Cn1c(CN2CCC(c3cccc(OCc4ccc(Cl)cc4F)n3)CC2)nc2ccc(C(=O)O)cc21 (centres unmarked) [Example 11A-18]	7.85

P = Cn1c(CN2CCC(c3cccc(OCc4ccc(Cl)cc4F)n3)CC2)nc2ccc(C(=O)O)cc21 [Example 1A-01, hydrochloride]
Q = Cc1cc(Cn2c(CN3CCC(c4cccc(OCc5ccc(Cl)cc5F)n4)CC3)nc3ccc(C(=O)O)cc32)on1 [Example 11A-47]
R = Cn1c(CN2CCC(c3cccc(OCc4ccc(C#N)cc4)n3)CC2)nc2ccc(C(=O)O)cc21 [Example 9A-15]
S = COCCn1c(CN2CCC(c3ccc(F)c(OCc4ccc(Cl)cc4F)n3)CC2)nc2ccc(C(=O)O)cc21 [Example 1A-04]
T = C[C@H]1CN(c2cccc(OCc3ccc(F)cc3F)n2)CCN1Cc1nc2ccc(C(=O)O)cc2n1C[C@@H]1CCO1 [Example 10A-58]
Sort (5 molecules) by pEC50: min first. Rank the items, then write their labels in that order.
Q, R, P, S, T
(Q: 6.49, R: 6.74, P: 7.09, S: 7.68, T: 9.28)

A = COC[C@@H](C)n1c(CN2CCC(c3cccc(OCc4ccc(Cl)cc4F)n3)CC2)nc2ccc(C(=O)O)cc21 [Example 11A-46]
B = O=C(O)c1ccc2nc(CN3CCC(c4cccc(OCc5ccc(Cl)cc5F)n4)CC3)n(Cc3ccno3)c2c1 [Example 10A-64]
I need your help: which of the pair A , B has higher pEC50? Kindly give the label for the entry you pick.
B
(B: 8.70, A: 6.52)

1 = CCc1noc(Cn2c(CN3CCC(c4cccc(OCc5ccc(Cl)cc5F)n4)CC3)nc3ccc(C(=O)O)cc32)n1 [Example 10A-52]
2 = O=C(O)c1ccc2nc(CN3CCC(c4cccc(OCc5ccc(Cl)cc5F)n4)CC3)n(CCO)c2c1 [Example 10A-50]
3 = COCC1(Cn2c(CN3CCC(c4cccc(OCc5ccc(Cl)cc5F)n4)CC3)nc3ccc(C(=O)O)cc32)CCC1 [Example 11A-74]
Sort (3 molecules) by pEC50: min first. Rank the items, then write their labels in that order.
1, 3, 2
